Target: SMARCA2-HiBiT (Homo sapiens, UniProt P51531)
Construct: SMARCA2-HiBiT knock-in Hela monoclonal cell (CS302366); host or cells: HeLa monoclonal knock-in line (CRISPR HiBiT knock-in at the endogenous locus, heterozygous)
Sequence (P51531 whole entry): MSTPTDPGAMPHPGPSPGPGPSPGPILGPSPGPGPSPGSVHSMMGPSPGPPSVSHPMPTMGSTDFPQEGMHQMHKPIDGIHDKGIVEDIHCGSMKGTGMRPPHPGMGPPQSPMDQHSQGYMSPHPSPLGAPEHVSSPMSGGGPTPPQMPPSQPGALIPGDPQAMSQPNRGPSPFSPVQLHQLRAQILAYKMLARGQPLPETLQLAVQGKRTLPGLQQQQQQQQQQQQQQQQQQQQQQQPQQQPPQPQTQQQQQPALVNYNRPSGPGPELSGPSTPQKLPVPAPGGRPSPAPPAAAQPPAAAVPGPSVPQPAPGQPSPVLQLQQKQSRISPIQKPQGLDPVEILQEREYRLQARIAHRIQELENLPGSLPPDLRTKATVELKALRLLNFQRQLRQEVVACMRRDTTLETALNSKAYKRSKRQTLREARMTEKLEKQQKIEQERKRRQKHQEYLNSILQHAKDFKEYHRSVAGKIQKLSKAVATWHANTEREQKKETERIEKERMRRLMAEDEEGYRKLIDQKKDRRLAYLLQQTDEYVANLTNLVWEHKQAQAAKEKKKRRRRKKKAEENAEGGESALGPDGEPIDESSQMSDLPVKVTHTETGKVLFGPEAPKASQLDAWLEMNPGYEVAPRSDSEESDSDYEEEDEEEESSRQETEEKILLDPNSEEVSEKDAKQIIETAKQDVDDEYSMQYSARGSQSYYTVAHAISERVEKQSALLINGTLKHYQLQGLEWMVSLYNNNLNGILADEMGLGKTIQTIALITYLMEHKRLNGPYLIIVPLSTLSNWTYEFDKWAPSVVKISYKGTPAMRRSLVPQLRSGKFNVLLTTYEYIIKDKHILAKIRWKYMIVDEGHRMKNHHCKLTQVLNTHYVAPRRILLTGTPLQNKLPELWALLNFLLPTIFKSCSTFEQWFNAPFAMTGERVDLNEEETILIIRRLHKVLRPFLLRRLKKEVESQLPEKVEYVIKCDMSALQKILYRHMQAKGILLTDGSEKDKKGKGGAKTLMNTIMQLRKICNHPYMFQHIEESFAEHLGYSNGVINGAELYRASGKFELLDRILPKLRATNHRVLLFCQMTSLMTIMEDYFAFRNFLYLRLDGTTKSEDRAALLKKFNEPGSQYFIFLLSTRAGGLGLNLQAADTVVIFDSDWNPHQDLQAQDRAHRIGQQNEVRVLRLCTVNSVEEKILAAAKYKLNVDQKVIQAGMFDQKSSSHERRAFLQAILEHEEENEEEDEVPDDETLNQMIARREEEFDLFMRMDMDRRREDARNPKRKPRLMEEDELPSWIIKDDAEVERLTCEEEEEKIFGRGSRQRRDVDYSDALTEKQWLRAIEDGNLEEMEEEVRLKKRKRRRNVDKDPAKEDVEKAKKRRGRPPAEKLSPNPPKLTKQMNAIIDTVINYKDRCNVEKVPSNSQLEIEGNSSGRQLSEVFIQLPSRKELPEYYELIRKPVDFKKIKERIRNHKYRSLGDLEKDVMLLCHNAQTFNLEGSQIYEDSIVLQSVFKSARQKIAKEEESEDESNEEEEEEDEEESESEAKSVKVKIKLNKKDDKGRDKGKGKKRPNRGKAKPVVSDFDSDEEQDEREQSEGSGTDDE
Experiment: SMARCA2 HiBiT degradation assay in HeLa cells
Assay type: cell-based
Conditions: HeLa, 18 hours incubation, read-out: HeLa-HiBit-SM2 Dmax (%)
A collection of compounds and their measured Dmax

Answered examples (3):
O=C1CCC(N2C(=O)c3cc(F)c(N4CCC(CN5CCC(CN6CCN7c8cc(-c9ccccc9O)nnc8NC[C@H]7C6)CC5)CC4)cc3C2=O)C(=O)N1 (stereo partly shown)    > 85%
O=C1CCC(N2C(=O)c3ccc(N4CCC(CN5CCC(CCCN6CCN7c8cc(-c9ccccc9O)nnc8NC[C@H]7C6)CC5)CC4)cc3C2=O)C(=O)N1 (stereo partly shown)    > 85%
O=C1CCC(N2C(=O)c3ccc(N4CCC(NC5CCN(C(=O)N6CCN7c8cc(-c9ccccc9O)nnc8NC[C@H]7C6)CC5)CC4)cc3C2=O)C(=O)N1 (stereo partly shown)    75 to 85%

API: value(readout=Dmax, system=SMARCA2-HiBiT (Homo sapiens, UniProt P51531)) for record O=C1CCC(N2C(=O)c3ccc(N4C[C@@H]5[C@@H](CN6CCC(CN7CCN8c9cc(-c%10ccccc%10O)nnc9NC[C@H]8C7)CC6)[C@@H]5C4)cc3C2=O)C(=O)N1 (stereo partly shown)
50 to 75%

// fetch SMARCA2-HiBiT (Homo sapiens, UniProt P51531) Dmax for O=C1CCC(N2C(=O)c3ccc(N4CCC(CN5CCN6c7cc(-c8ccccc8O)nnc7NC[C@H]6C5)CC4)cc3C2=O)C(=O)N1 (stereo partly shown)
75 to 85%

Report Dmax for O=C1CCC(N2C(=O)c3ccc(N4CCC(CN5CCC(C(=O)N6CCN7c8cc(-c9ccccc9O)nnc8NC[C@H]7C6)CC5)C(F)(F)C4)cc3C2=O)C(=O)N1 (stereo partly shown) tested on SMARCA2-HiBiT (Homo sapiens, UniProt P51531).
75 to 85%

Could you share what Dmax was measured for O=C1CCC(N2Cc3cc(CN4CCC(CCCN5CCC(N6CCN7c8cc(-c9ccccc9O)nnc8NC[C@H]7C6)CC5)CC4)ccc3C2=O)C(=O)N1 (stereo partly shown) , tested on SMARCA2-HiBiT (Homo sapiens, UniProt P51531)?
> 85%

State its Dmax on SMARCA2-HiBiT (Homo sapiens, UniProt P51531): O=C1CCC(N2C(=O)c3ccc(N4CCCC(N5CCC(CN6CCN7c8cc(-c9ccccc9O)nnc8NC[C@H]7C6)CC5)C4)cc3C2=O)C(=O)N1 (stereo partly shown)
> 85%
